# Tested on: HEK293
# Assay Method Text: Inhibition of LPS-induced NF-kappaB production in HEK293 cells
# Type: functional, cell-based
# Measurement Setup: Homo sapiens
# IC50 per record follows
Note: unit µM is implicit; provide only the numeric part.

CCCCCCCCS(=O)(=O)NCCCNCCCNCCCCNCCCNCCCNS(=O)(=O)CCCCCCCC :: 0.607
CCCCCCCCCCS(=O)(=O)NCCCNCCCCNCCCN :: 0.5
CCCCCCCCCCCCS(=O)(=O)NCCCNCCCNCCCN :: 0.363
CCCCCCCCCCCCCCCCS(=O)(=O)NCCCOCCCCOCCCN :: 22.4
CCCCCCCCS(=O)(=O)NCCCNCCCCNCCCN :: 33.3

Please turn your attention to the following entry.
Query: Tell us which IC50 value is on record for CCCCCCCCCCCCCCCCS(=O)(=O)NCCCNCCCNCCCCNCCCN
Response: 0.2

---

# Assay Method Text: Binding affinity to lipid A moiety of LPS in gram negative bacteria by fluorescent-based displacement assay
Mark 1 only for ED50 values smaller than 9 µM; exact matches and larger values are 0.

Solved entries (count: 2):
CCCCCCCCS(=O)(=O)NCCCN(CCCNCCCCNCCCN)CCCNS(=O)(=O)CCCCCCCC :: 1
CCCCCCCCS(=O)(=O)NCCCNCCCNCCCCNCCCNCCCNS(=O)(=O)CCCCCCCC :: 1

Query: For CCCCCCCCS(=O)(=O)NCCCNCCCNCCCN , is the recorded ED50 below the cut-off of 9 µM?
Response: 1

Query: For CCCCCCCCCCCCCCCCS(=O)(=O)NCCCN(CCCNCCCNCCCCNCCCN)CCCNS(=O)(=O)CCCCCCCCCCCCCCCC , is the recorded ED50 below the cut-off of 9 µM?
Response: 0

Query: For CCCCCCCCCCCCCCCCS(=O)(=O)NCCCNCCCNCCCCNCCCNCCCNS(=O)(=O)CCCCCCCCCCCCCCCC , is the recorded ED50 below the cut-off of 9 µM?
Response: 0

---

# ED50 per record follows
# Assay Method Text: Binding affinity to lipid A moiety of LPS in gram negative bacteria by fluorescent-based displacement assay
Note: unit µM is implicit; provide only the numeric part.

Some entries whose results are on file:
CCCCCCCCCCCCS(=O)(=O)NCCCNCCCNCCCCNCCCNCCCNS(=O)(=O)CCCCCCCCCCCC :: 55.2
CCCCCCCCCCCCS(=O)(=O)NCCCNC/C=C/CNCCCN :: 3.83
CCCCCCCCCCCCCCCCS(=O)(=O)NCCCNCCCNCCCCNCCCN :: 4.71
CCCCCCCCCCCCS(=O)(=O)NCCCN(CCCNCCCNCCCCNCCCN)CCCNS(=O)(=O)CCCCCCCCCCCC :: 6.82
CCCCCCCCCCCCCCCCS(=O)(=O)NCCN(CCN)CCN :: 3.54

Query: Tell us which ED50 value is on record for CCCCCCCCS(=O)(=O)NCCCNCCCCNCCCN
Response: 6.64

Query: Tell us which ED50 value is on record for CCCCCCCCCCS(=O)(=O)NCCCNCCCCNCCCN
Response: 3.7

Query: Tell us which ED50 value is on record for CCCCCCCCCCCCCCCCCCS(=O)(=O)NCCCNCCCCNCCCN
Response: 6.01

Query: Tell us which ED50 value is on record for CCCCCCCC(=O)NCCCN(CCCNCCCNCCCCNCCCN)CCCNC(=O)CCCCCCC
Response: 1.32

---

# System: HEK293
# Assay Method Text: Inhibition of LPS-induced NF-kappaB production in HEK293 cells
# Format: functional, cell-based
# Measurement Setup: Homo sapiens
# pIC50 per record follows
Keep in mind that pIC50 stands for -log10 of concentration in molar terms.

Some entries whose results are on file:
CCCCCCCCCCCCCCCCS(=O)(=O)N(CCCN)CCCCNCCCN :: 5.57
CCCCCCCCS(=O)(=O)NCCCN(CCCNCCCCNCCCN)CCCNS(=O)(=O)CCCCCCCC :: 6.17
CCCCCCCCCCCCS(=O)(=O)NCCCNCCCNCCCCNCCCN :: 6.72
CCCCCCCCCCS(=O)(=O)NCCCN(CCCNCCCNCCCCNCCCN)CCCNS(=O)(=O)CCCCCCCCCC :: 5.66

Please turn your attention to the following entry.
Query: Tell us which pIC50 value is on record for CCCCCCCCCCS(=O)(=O)NCCCNCCCNCCCCNCCCN
Response: 6.56

---

# System: HEK293
# Assay Method Text: Inhibition of LPS-induced NF-kappaB production in HEK293 cells
# Type: functional, cell-based
# Measurement Setup: Homo sapiens
# pIC50 per record follows
Keep in mind that pIC50 stands for -log10 of concentration in molar terms.

Query: Tell us which pIC50 value is on record for CCCCCCCCCCS(=O)(=O)NCCCNCCCNCCCCNCCCNCCCNS(=O)(=O)CCCCCCCCCC
Response: 5.38

Query: Tell us which pIC50 value is on record for CCCCCCCCCCCCCCCCCCS(=O)(=O)NCCCNCCCCNCCCN
Response: 6.44

Query: Tell us which pIC50 value is on record for CCCCCCCCCCCCCCCCS(=O)(=O)NCCCN(CCCNCCCCNCCCN)CCCNS(=O)(=O)CCCCCCCCCCCCCCCC
Response: 5.31

Query: Tell us which pIC50 value is on record for CCCCCCCCCCCCS(=O)(=O)NCCCNCCCNCCCCNCCCNCCCNS(=O)(=O)CCCCCCCCCCCC
Response: 4.99

Query: Tell us which pIC50 value is on record for CCCCCCCCS(=O)(=O)NCCCNCCCNCCCCNCCCN
Response: 6.09

Query: Tell us which pIC50 value is on record for CCCCCCCCCCCCCCCCS(=O)(=O)NCCCN(CCCN)CCCN
Response: 5.04

Query: Tell us which pIC50 value is on record for CCCCCCCCS(=O)(=O)NCCCN(CCCNCCCNCCCCNCCCN)CCCNS(=O)(=O)CCCCCCCC
Response: 6.52

Query: Tell us which pIC50 value is on record for CCCCCCCC(=O)NCCCN(CCCNCCCNCCCCNCCCN)CCCNC(=O)CCCCCCC
Response: 5.50

Query: Tell us which pIC50 value is on record for CCCCCCCCCCCCS(=O)(=O)NCCCN(CCCNCCCCNCCCN)CCCNS(=O)(=O)CCCCCCCCCCCC
Response: 4.88

Query: Tell us which pIC50 value is on record for CCCCCCCCCCCCCCCCCCS(=O)(=O)NCCCNCCCNCCCCNCCCNCCCNS(=O)(=O)CCCCCCCCCCCCCCCCCC
Response: 5.19

Query: Tell us which pIC50 value is on record for CCCCCCCCCCCCS(=O)(=O)NCCCN(CCCNCCCNCCCCNCCCN)CCCNS(=O)(=O)CCCCCCCCCCCC
Response: 4.79

Query: Tell us which pIC50 value is on record for CCCCCCCCCCCCCCCCCCS(=O)(=O)NCCCNCCCNCCCCNCCCN
Response: 5.97

Query: Tell us which pIC50 value is on record for CCCCCCCCCCCCCCCCCCS(=O)(=O)NCCCN(CCCNCCCCNCCCN)CCCNS(=O)(=O)CCCCCCCCCCCCCCCCCC
Response: 4.19

---

# Assay Method Text: Binding affinity to lipid A moiety of LPS in gram negative bacteria by fluorescent-based displacement assay
# ED50 per record follows
Note: unit µM is implicit; provide only the numeric part.

CCCCCCCCCCCCCCCCS(=O)(=O)NCCCNCCCCNCCCN :: 3.87
CCCCCCCCCCCCS(=O)(=O)NCCCNCCCCNCCCN :: 2.69
CCCCCCCCS(=O)(=O)NCCCNCCCNCCCCNCCCN :: 2.84
CCCCCCCCCCCCCCCCCCS(=O)(=O)NCCCN(CCCNCCCCNCCCN)CCCNS(=O)(=O)CCCCCCCCCCCCCCCCCC :: 28.3
CCCCCCCCS(=O)(=O)NCCCN(CCCNCCCNCCCCNCCCN)CCCNS(=O)(=O)CCCCCCCC :: 2.62
CCCCCCCCCCS(=O)(=O)NCCCNCCCNCCCCNCCCN :: 2.89
CCCCCCCCCCCCCCCCS(=O)(=O)NCCCN(CCCNCCCCNCCCN)CCCNS(=O)(=O)CCCCCCCCCCCCCCCC :: 26.4
CCCCCCCCCCCCS(=O)(=O)NCCCN(CCCNCCCCNCCCN)CCCNS(=O)(=O)CCCCCCCCCCCC :: 3.98

Query: Tell us which ED50 value is on record for CCCCCCCCS(=O)(=O)NCCNCCCNCCN
Response: 10.6

Query: Tell us which ED50 value is on record for CCCCCCCCS(=O)(=O)NCCCNC/C=C/CNCCCN
Response: 12.4

Query: Tell us which ED50 value is on record for CCCCCCCCCCCCCCCCCCS(=O)(=O)NCCCNCCCNCCCCNCCCNCCCNS(=O)(=O)CCCCCCCCCCCCCCCCCC
Response: 5000

Query: Tell us which ED50 value is on record for CCCCCCCCCCCCS(=O)(=O)NCCCNCCCNCCCN
Response: 4.27

Query: Tell us which ED50 value is on record for CCCCCCCCCCCCCCCCS(=O)(=O)N(CCCN)CCCCNCCCN
Response: 45.6

// provenance: ChEMBL document CHEMBL1141383
